// reported pIC50 per item
- Tested on: Vero E6 cells
- test-method-notes: Cytotoxicity on Vero E6 cells (MTT)
- Type: cell-based, monkey
- measurement-parameters: Primates, Vero C1008; estimated, 24 h
pIC50: −log10 of the molar value.

Below, each entry is followed by its recorded pIC50 result.
>>> df
                                   compound  measured_value
0  CCOC(=O)/C1=C/c2c([nH]c3ccccc23)/C(C(=O)OCC)=C\c2c1[nH]c1ccccc21 [DE]          < 3.92
1  COC(=O)/C1=C/c2c([nH]c3ccccc23)/C(C(=O)OC)=C\c2c1[nH]c1ccccc21 [CP, Caulerpin]          < 3.92

Okay, now this compound:
-- ask Quick one: pIC50 of O=C(O)C1=Cc2c([nH]c3ccccc23)C(C(=O)O)=Cc2c1[nH]c1ccccc21 [CA, caulerpinic acid] ?
-- reply < 3.92
